B1: Ventral anterior homeobox 1, residues 102 to 157; numbered along this chain, Q5SQQ9 (parent)
chain: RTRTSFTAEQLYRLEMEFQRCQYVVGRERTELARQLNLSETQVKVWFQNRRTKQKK

variants of: B1; assay: abundance fitness (aPCA) (normalised: wild type 0, dead -1); higher = more abundant; growth selection in yeast, the domain comes from the species named; settings: Homo sapiens
Decision: abundance fitness >= -0.2 yields rule met, all other cases yield rule not met.

| alteration | assignedClass |
| --- | --- |
| R34L | rule not met |
| Q42N | rule not met |
| T41S | rule met |
| Q54K | rule met |
| R51D | rule met |
| R13W | rule not met |
| S5G | rule met |
| A8N | rule met |
| E15L | rule not met |
| R50V | rule not met |
| F6L | rule met |
| Q42W | rule not met |
| N49M | rule not met |
| L11Q | rule met |
| Q54S | rule met |
| Y23L | rule met |
| R20V | rule met |
| T7Y | rule not met |
| Q35M | rule met |
| L36K | rule not met |
| Q42T | rule met |
| L38K | rule not met |
| Y23Q | rule met |
| R3G | rule met |
| F47H | rule not met |
| S5E | rule met |
| K55G | rule met |
| K55E | rule met |
| E9Y | rule not met |
| V43D | rule not met |
| L32M | rule not met |
| T41N | rule met |
| E15V | rule not met |
| G26M | rule not met |
| V45Y | rule met |
| R13G | rule not met |
| K53V | rule met |
| G26N | rule not met |
| E9A | rule not met |
| Q42R | rule not met |
| K55S | rule met |
| T4F | rule not met |
| E40A | rule not met |
| K44V | rule met |
| V25H | rule met |
| K53C | rule met |
| R20F | rule not met |
| K53L | rule met |
| N49G | rule met |
| S5R | rule not met |
